- Test system: HOP-62 complex spheroids with HUVEC/MSC, viability
- Test Protocol: Anticancer human tumor HOP-62 cell line growth inhibition [RAS];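 also: spheroids exposed to agents for seven days before readout; 100% = DMSO vehicle control viability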
- Run Parameters: second compound 0.003 µM; first compound 0.0316 µM; hits give low values
Quantity: viability, T/C (%)
The reply should be a number in %, with the unit left off.

Nc1ccn(C2OC(CO)C(O)C2(F)F)c(=O)n1 (centres undefined) + CCn1c(-c2cc(N3CCN(C)CC3)cnc2C(C)OC)c2c3cc(ccc31)-c1csc(n1)CC(NC(=O)C1CC1C)C(=O)N1CCCC(N1)C(=O)OCC(C)(C)C2
29.5

query: If you can, please state the reported viability, T/C value of O=C(c1ccc(F)c(F)c1Nc1ccc(I)cc1F)N1CC(O)([C@@H]2CCCCN2)C1 + CCn1c(-c2cccnc2C(C)OC)c2c3cc(ccc31)N1CCOC(CC(NC(=O)C(C(C)C)N(C)C(=O)C3(F)CCN(C(=O)C#CC(C)(C)N(C)C)CC3)C(=O)N3CCCC(N3)C(=O)OCC(C)(C)C2)C1 .
result: 90.3

query: Entry CC(=O)OC12COC1CC(O)C1(C)C(=O)C(O)C3=C(C)C(OC(=O)C(O)C(NC(=O)OC(C)(C)C)c4ccccc4)CC(O)(C(OC(=O)c4ccccc4)C21)C3(C)C (centres undefined) + CCn1c(-c2cc(N3CCN(C)CC3)cnc2C(C)OC)c2c3cc(ccc31)-c1csc(n1)CC(NC(=O)C1CC1C)C(=O)N1CCCC(N1)C(=O)OCC(C)(C)C2 please
result: 44.1

query: Another compound: C=CC(=O)N1CCN(c2nc(OCC3CCCN3C)nc3c(F)c(-c4nc(N)cc(C)c4C(F)(F)F)c(Cl)cc23)C(C)C1 (centres undefined) + CCn1c(-c2cccnc2C(C)OC)c2c3cc(ccc31)N1CCOC(CC(NC(=O)C(C(C)C)N(C)C(=O)C3(F)CCN(C(=O)C#CC(C)(C)N(C)C)CC3)C(=O)N3CCCC(N3)C(=O)OCC(C)(C)C2)C1
result: 76.8
